methodSummary: TEAD-YAP interaction inhibition, primary screen, TEAD-YAP interaction inhibitor project, luminescence, HEK-TIYL cells (AID 1259422);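 note: 0% = median of test compound wells and 100% = reference inhibitor wells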
testParameters: TEAD-Gal4/YAP UAS-luciferase luminescence, at 9.12 µM
Screen size: about 640,000 compounds; about 9,300 (1.5%) were called active. Cut-off read from the data, not from the text of the source: active = inhibition above about 32%; inactive = the rest. The full list was thinned out, with actives kept by preference.
Outcome codes: yes (1) for active, no (0) for inactive

# compound, classLabel
rows = [
    ("CC(=O)C1=C(O)C(=O)N(c2ccc(C(=O)O)c(O)c2)C1c1ccccc1 (stereo unspecified)", "no (0)"),
    ("O=C(O)c1ccc(-n2cccc2)cc1O", "yes (1)"),
    ("Cn1c(=O)n(C)c2cc(/C=C3/SC(=Nc4ccc(F)cc4)NC3=O)ccc21", "no (0)"),
    ("CCOC(=O)c1sc(NC(=O)c2cccc(Cl)c2)c(C(=O)OCC)c1C", "no (0)"),
    ("CCCCNC(=O)C(=O)NCCC1CCCCN1S(=O)(=O)c1ccc(C)cc1 (stereo unspecified)", "yes (1)"),
    ("O=C1NC(=Nc2ccc(F)cc2)S/C1=C\\c1ccc(O)c(O)c1", "yes (1)"),
]

---

methodSummary: TEAD-YAP interaction inhibition, primary screen, TEAD-YAP interaction inhibitor project, luminescence, HEK-TIYL cells (AID 1259422);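 note: 0% = median of test compound wells and 100% = reference inhibitor wells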
testParameters: TEAD-Gal4/YAP UAS-luciferase luminescence, at 9.12 µM
Out of some 640,000 compounds screened, about 9,300 (1.5%) were called active. Cut-off read from the data, not from the text of the source: active = inhibition above about 32%; inactive = the rest. The full list was thinned out, with actives kept by preference.
Outcome codes: 1.0 for active, 0.0 for inactive

# compound, classLabel
rows = [
    ("Cc1cc(C)c(OCCn2c(-c3ccc(Cl)cc3)nc3ccccc3c2=O)c(C)c1", 0.0),
    ("CCC(C(=O)NC(C)C)n1nc(C)c2sc3ccccc3c2c1=O (configuration not stated)", 0.0),
    ("COc1ccc(Nc2nc(C)nc3sc(C)cc23)c(OC)c1", 1.0),
    ("COc1ccc(-n2cnc3cc(C(=O)NCc4ccccc4OC)ccc32)cc1", 0.0),
    ("Cc1ccc(NC(=O)CCn2cccc2)c(C)c1", 0.0),
    ("N=C1c2ccccc2CN1NC(=O)c1ccccc1-n1cccc1", 0.0),
    ("COc1ccc(Nc2nc3nonc3nc2Nc2ccc(OC)cc2OC)c(OC)c1", 0.0),
    ("Cc1cc(C(=O)COC(=O)c2cc(Cl)cc(Cl)c2N)c(C)n1CC1CCCO1 (configuration not stated)", 0.0),
    ("COc1cc2c(cc1/C=C1/NC(=O)N(Cc3ccccc3Cl)C1=O)OCO2", 0.0),
    ("COc1ccc(N=C2SC(C(=O)NCCc3ccccc3)CC(=O)N2CCc2ccc(OC)c(OC)c2)cc1 (configuration not stated)", 0.0),
    ("CCn1c(CNc2c(C)cccc2C)nnc1SCC(N)=O", 0.0),
    ("COc1ccc(NC(=O)CNC(=O)Cn2cnc3sc(C)cc3c2=O)c(OC)c1", 0.0),
    ("Cc1ccccc1-n1c(C)cc(/C=C2\\NC(=O)NC2=O)c1C", 1.0),
    ("Cc1cc(Nc2ccc3c(c2)OCO3)nc(Nc2cccc(N(C)C)c2)n1", 0.0),
    ("Cc1c(Cl)cccc1N1C(=O)c2ccc(Oc3ccc(Nc4ncnc5ccccc45)cc3)cc2C1=O", 0.0),
    ("COc1ccc(CCNc2nc3ccc(C)cc3n3cnnc23)cc1OC", 0.0),
    ("COc1ccc(CCNc2nc(C)nc3sc(C)cc23)cc1OC", 1.0),
    ("COc1ccc(CCNc2nc(SCC#N)nc3ccccc23)cc1OC", 0.0),
    ("CCN(C(=O)C1CCC1)c1nnc(-c2ccc(OC)cc2)s1", 0.0),
    ("COc1ccccc1C1N=C(c2cccs2)CC(c2ccccc2O)N1 (configuration not stated)", 0.0),
    ("CCOC(=O)c1sc2ncn(CC(=O)Nc3cccc(C(F)(F)F)c3)c(=O)c2c1C", 0.0),
    ("Cc1cc(/C=C2/NC(=O)NC2=O)c(C)n1-c1ccc(Cl)cc1", 0.0),
]

Data credit: PubChem BioAssay AID1259422
